- target of assay: Beta-1 adrenergic receptor (Homo sapiens)
- test summary: Antagonist activity at human beta-1 adrenergic receptor site 2 expressed in CGP 12177-stimulated CHO-K1 cells assessed as CRE-SPAP level by […]
outcome measure: log10(Kd) (log10 of the value in nM)
# log10 transformed; quantity=Kd; unit=nM

Here are 3 compounds together with their reported answers.
INSERT INTO results (compound, target_of_assay, measurement) VALUES
  ('O=C(CCCCCNC(=O)COc1ccc(/C=C/c2ccc3n2[B-](F)(F)[N+]2=C(c4cccs4)C=CC2=C3)cc1)NCCNCC(O)COc1cccc2ccccc12 (racemic)', 'Beta-1 adrenergic receptor (Homo sapiens)', 2.55),
  ('O=C(CCCCCNC(=O)COc1ccc(/C=C/c2ccc3n2[B-](F)(F)[N+]2=C(c4cccs4)C=CC2=C3)cc1)NCCOCCOCCNCC(O)COc1cccc2ccccc12 (racemic)', 'Beta-1 adrenergic receptor (Homo sapiens)', 2.05),
  ('O=C(CCCCCNC(=O)COc1ccc(/C=C/c2ccc3n2[B-](F)(F)[N+]2=C(c4cccs4)C=CC2=C3)cc1)NCCCCCCCCNC[C@H](O)COc1cccc2ccccc12', 'Beta-1 adrenergic receptor (Homo sapiens)', 2.90);

Give log10(Kd) for each of the items listed below.
1. C=CCc1ccccc1OC[C@@H](O)CNCCOCCOCCNC(=O)CCCCCNC(=O)COc1ccc(/C=C/c2ccc3n2[B-](F)(F)[N+]2=C(c4cccs4)C=CC2=C3)cc1
2. O=C(CCCCCNC(=O)COc1ccc(/C=C/c2ccc3n2[B-](F)(F)[N+]2=C(c4cccs4)C=CC2=C3)cc1)NCCCCNC[C@H](O)COc1cccc2ccccc12
3. O=C(CCCCCNC(=O)COc1ccc(/C=C/c2ccc3n2[B-](F)(F)[N+]2=C(c4cccs4)C=CC2=C3)cc1)NCCCCNCC(O)COc1cccc2ccccc12 (racemic)

[1.62, 2.26, 2.38]

Give log10(Kd) for each of the items listed below.
1. C=CCc1ccccc1OC[C@@H](O)CNCCNC(=O)CCCCCNC(=O)COc1ccc(/C=C/c2ccc3n2[B-](F)(F)[N+]2=C(c4cccs4)C=CC2=C3)cc1
2. C=CCc1ccccc1OCC(O)CNCCOCCOCCNC(=O)CCCCCNC(=O)COc1ccc(/C=C/c2ccc3n2[B-](F)(F)[N+]2=C(c4cccs4)C=CC2=C3)cc1 (racemic)

1.87
1.89

====

- target of assay: Beta-1 adrenergic receptor (Homo sapiens, UniProt P08588)
- Sequence (P08588 whole entry): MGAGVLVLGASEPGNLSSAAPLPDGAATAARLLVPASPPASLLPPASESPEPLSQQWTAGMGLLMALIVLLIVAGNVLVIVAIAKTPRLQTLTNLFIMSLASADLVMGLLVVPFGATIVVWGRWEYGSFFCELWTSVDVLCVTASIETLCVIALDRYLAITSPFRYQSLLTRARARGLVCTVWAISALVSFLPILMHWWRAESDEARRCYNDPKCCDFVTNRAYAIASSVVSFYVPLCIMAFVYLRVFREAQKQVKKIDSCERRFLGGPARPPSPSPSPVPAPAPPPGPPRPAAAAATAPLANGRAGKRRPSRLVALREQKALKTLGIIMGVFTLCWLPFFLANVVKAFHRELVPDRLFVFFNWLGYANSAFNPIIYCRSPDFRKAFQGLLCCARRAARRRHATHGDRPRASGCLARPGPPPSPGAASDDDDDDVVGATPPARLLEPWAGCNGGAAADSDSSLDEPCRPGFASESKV
- test summary: Antagonist activity at human beta-1 adrenergic receptor site 1 expressed in cimeterol-stimulated CHO-K1 cells assessed as CRE-SPAP level by […]
- Format: functional, cell-based
outcome measure: pKd
Answers are plain numbers, as −log10 of the molar value.

INSERT INTO results (compound, target_of_assay, outcome_measure, measurement) VALUES
  ('O=C(CCCCCNC(=O)COc1ccc(/C=C/c2ccc3n2[B-](F)(F)[N+]2=C(c4cccs4)C=CC2=C3)cc1)NCCNCC(O)COc1cccc2[nH]ccc12 (racemic)', 'Beta-1 adrenergic receptor (Homo sapiens, UniProt P08588)', 'pKd', 6.52);

Give pKd for each of the items listed below.
1. C=CCc1ccccc1OCC(O)CNCCOCCOCCNC(=O)CCCCCNC(=O)COc1ccc(/C=C/c2ccc3n2[B-](F)(F)[N+]2=C(c4cccs4)C=CC2=C3)cc1 (racemic)
2. C=CCc1ccccc1OCC(O)CNCCNC(=O)CCCCCNC(=O)COc1ccc(/C=C/c2ccc3n2[B-](F)(F)[N+]2=C(c4cccs4)C=CC2=C3)cc1 (racemic)
3. O=C(CCCCCNC(=O)COc1ccc(/C=C/c2ccc3n2[B-](F)(F)[N+]2=C(c4cccs4)C=CC2=C3)cc1)NCCNCC(O)COc1cccc2ccccc12 (racemic)
4. O=C(CCCCCNC(=O)COc1ccc(/C=C/c2ccc3n2[B-](F)(F)[N+]2=C(c4cccs4)C=CC2=C3)cc1)NCCCCNC[C@H](O)COc1cccc2ccccc12
5. O=C(CCCCCNC(=O)COc1ccc(/C=C/c2ccc3n2[B-](F)(F)[N+]2=C(c4cccs4)C=CC2=C3)cc1)NCCCCCCCCNCC(O)COc1cccc2ccccc12 (racemic)

1. 7.76
2. 7.36
3. 7.12
4. 7.87
5. 6.66

====

- target of assay: Beta-3 adrenergic receptor (Homo sapiens, UniProt P13945)
- Sequence (P13945 whole entry, looked up): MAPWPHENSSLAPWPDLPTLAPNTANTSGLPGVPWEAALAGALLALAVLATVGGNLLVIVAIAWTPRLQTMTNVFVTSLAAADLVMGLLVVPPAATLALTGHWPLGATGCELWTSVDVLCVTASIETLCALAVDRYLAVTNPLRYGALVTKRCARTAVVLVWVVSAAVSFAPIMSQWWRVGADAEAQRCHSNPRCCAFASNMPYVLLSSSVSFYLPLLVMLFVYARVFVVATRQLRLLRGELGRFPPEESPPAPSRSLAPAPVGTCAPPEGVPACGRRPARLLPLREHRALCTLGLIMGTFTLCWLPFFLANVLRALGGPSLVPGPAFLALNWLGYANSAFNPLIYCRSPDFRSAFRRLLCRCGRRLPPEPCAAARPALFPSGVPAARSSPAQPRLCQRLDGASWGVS
- test summary: Partial agonist activity at human beta-3 adrenergic receptor expressed in CHOK1 cells assessed as CRE-SPAP production at 1 uM by […] relative to 10 uM isoprenaline
- Type: functional, cell-based
- test settings: CHO-K1
Rule: Activity under 60% gives Criterion not met, otherwise Criterion met.

Here are 4 compounds together with their reported answers.
INSERT INTO results (compound, label) VALUES
  ('O=C(CCCCCNC(=O)COc1ccc(/C=C/c2ccc3n2[B-](F)(F)[N+]2=C(c4cccs4)C=CC2=C3)cc1)NCCOCCOCCNCC(O)COc1cccc2[nH]ccc12 (racemic)', 'Criterion not met'),
  ('C=CCc1ccccc1OCC(O)CNC(C)C (stereo not given)', 'Criterion met'),
  ('CC(C)NCC(O)COc1cccc2[nH]ccc12 (stereo not given)', 'Criterion met'),
  ('C=CCc1ccccc1OC[C@@H](O)CNCCNC(=O)CCCCCNC(=O)COc1ccc(/C=C/c2ccc3n2[B-](F)(F)[N+]2=C(c4cccs4)C=CC2=C3)cc1', 'Criterion not met');

Reported Activity at or above 60%? O=C(CCCCCNC(=O)COc1ccc(/C=C/c2ccc3n2[B-](F)(F)[N+]2=C(c4cccs4)C=CC2=C3)cc1)NCCNCC(O)COc1cccc2[nH]ccc12 (racemic)
Criterion not met

====

- target of assay: Beta-2 adrenergic receptor (Homo sapiens, UniProt P07550)
- Sequence (P07550 whole entry): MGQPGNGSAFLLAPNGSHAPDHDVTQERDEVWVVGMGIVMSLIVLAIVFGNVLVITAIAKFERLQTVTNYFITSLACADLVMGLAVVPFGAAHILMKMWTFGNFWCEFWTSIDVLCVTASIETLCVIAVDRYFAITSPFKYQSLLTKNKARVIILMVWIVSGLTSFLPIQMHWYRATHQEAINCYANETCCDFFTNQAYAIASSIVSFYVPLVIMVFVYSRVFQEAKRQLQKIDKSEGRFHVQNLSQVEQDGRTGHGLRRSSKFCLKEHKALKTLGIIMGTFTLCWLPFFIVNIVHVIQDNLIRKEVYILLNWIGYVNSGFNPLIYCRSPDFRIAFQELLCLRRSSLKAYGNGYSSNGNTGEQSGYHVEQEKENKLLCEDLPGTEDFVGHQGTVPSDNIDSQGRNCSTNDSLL
- test summary: Antagonist activity at human beta-2 adrenergic receptor expressed in salbutamol-stimulated CHO-K1 cells assessed as CRE-SPAP level by […]
- Type: functional, cell-based
pKd: −log10 of the molar value.
Rule: pKd under 9 gives Criterion not met, otherwise Criterion met.

INSERT INTO results (molecule, target_of_assay, label) VALUES
  ('O=C(CCCCCNC(=O)COc1ccc(/C=C/c2ccc3n2[B-](F)(F)[N+]2=C(c4cccs4)C=CC2=C3)cc1)NCCOCCOCCNCC(O)COc1cccc2[nH]ccc12 (racemic)', 'Beta-2 adrenergic receptor (Homo sapiens, UniProt P07550)', 'Criterion not met');

Then this molecule:
Reported pKd at or above 9? O=C(CCCCCNC(=O)COc1ccc(/C=C/c2ccc3n2[B-](F)(F)[N+]2=C(c4cccs4)C=CC2=C3)cc1)NCCOCCOCCNC[C@H](O)COc1cccc2ccccc12
Criterion met

====

- target of assay: UniProtKB P08588
- test summary: biochemical
- Description: Displacement of [3H]-CGP 12177 from human beta-1 adrenergic receptor expressed in CHOK1 cells
Task for the reader: assign each of the following molecules its reported Kd.
One number for each entry, in nM.

Give Kd for each of the items listed below.
1. C=CCc1ccccc1OCC(O)CNCCNC(=O)CCCCCNC(=O)COc1ccc(/C=C/c2ccc3n2[B-](F)(F)[N+]2=C(c4cccs4)C=CC2=C3)cc1 (racemic)
2. O=C(CCCCCNC(=O)COc1ccc(/C=C/c2ccc3n2[B-](F)(F)[N+]2=C(c4cccs4)C=CC2=C3)cc1)NCCNCC(O)COc1cccc2ccccc12 (racemic)
3. C=CCc1ccccc1OC[C@@H](O)CNCCNC(=O)CCCCCNC(=O)COc1ccc(/C=C/c2ccc3n2[B-](F)(F)[N+]2=C(c4cccs4)C=CC2=C3)cc1
4. O=C(CCCCCNC(=O)COc1ccc(/C=C/c2ccc3n2[B-](F)(F)[N+]2=C(c4cccs4)C=CC2=C3)cc1)NCCNCC(O)COc1cccc2[nH]ccc12 (racemic)
5. C=CCc1ccccc1OC[C@@H](O)CNCCOCCOCCNC(=O)CCCCCNC(=O)COc1ccc(/C=C/c2ccc3n2[B-](F)(F)[N+]2=C(c4cccs4)C=CC2=C3)cc1
6. O=C(CCCCCNC(=O)COc1ccc(/C=C/c2ccc3n2[B-](F)(F)[N+]2=C(c4cccs4)C=CC2=C3)cc1)NCCOCCOCCNC[C@H](O)COc1cccc2ccccc12
7. O=C(CCCCCNC(=O)COc1ccc(/C=C/c2ccc3n2[B-](F)(F)[N+]2=C(c4cccs4)C=CC2=C3)cc1)NCCCCNCC(O)COc1cccc2ccccc12 (racemic)
8. O=C(CCCCCNC(=O)COc1ccc(/C=C/c2ccc3n2[B-](F)(F)[N+]2=C(c4cccs4)C=CC2=C3)cc1)NCCOCCOCCNCC(O)COc1cccc2[nH]ccc12 (racemic)

1: 55; 2: 89.1; 3: 91.2; 4: 871; 5: 22.4; 6: 17.4; 7: 56.2; 8: 97.7

Give Kd for each of the items listed below.
1. C=CCc1ccccc1OCC(O)CNCCOCCOCCNC(=O)CCCCCNC(=O)COc1ccc(/C=C/c2ccc3n2[B-](F)(F)[N+]2=C(c4cccs4)C=CC2=C3)cc1 (racemic)
2. O=C(CCCCCNC(=O)COc1ccc(/C=C/c2ccc3n2[B-](F)(F)[N+]2=C(c4cccs4)C=CC2=C3)cc1)NCCOCCOCCNCC(O)COc1cccc2ccccc12 (racemic)

1. 31.6
2. 72.4
